Origin of the recorded values: PubChem BioAssay (Tox21)

Listing of entries alongside the reported max response.
experimental_protocol: qHTS RealTime-Glo MT Cell Viability Assay in HEK293 cells - 40 hour (AID 1224874); also: % is scaled to controls: 0 for no effect and ±100 for the full control effect; nearly all actives have a fitted effect of over 50% in size
condition_description: RealTime-Glo luminescence; active compounds read low
Records with an inconclusive call do not appear.

{"compound": "Nc1ncn([C@H]2C[C@H](O)[C@@H](CO)O2)c(=O)n1", "units": "%", "max response": 2.14}
{"compound": "O=C1c2ccccc2S(=O)(=O)N1CCCCN1CCN(c2ncccn2)CC1", "units": "%", "max response": -0.801}
{"compound": "COc1ccc2cccc(CCNC(C)=O)c2c1", "units": "%", "max response": -8.88}
{"compound": "O=C(O)CC(=O)C(=O)O", "units": "%", "max response": -2.18}
{"compound": "O=C1OC(CN2CCOCC2)CN1/N=C/c1ccc([N+](=O)[O-])o1 (stereo unspecified)", "units": "%", "max response": -0.929}
{"compound": "C[C@H](CCC(=O)O)[C@H]1CC[C@H]2[C@@H]3CC[C@@H]4C[C@H](O)CC[C@]4(C)[C@H]3C[C@H](O)[C@]12C", "units": "%", "max response": -23.1}
{"compound": "Nc1c(CC(=O)O)cccc1C(=O)c1ccc(Br)cc1", "units": "%", "max response": 13}
{"compound": "CCCCOC(=O)CCCCCCCC(=O)OCCCC", "units": "%", "max response": 2.76}
{"compound": "COC(C)OC", "units": "%", "max response": 5.31}
{"compound": "C=CCOc1ccccc1OCC(O)CNC(C)C (stereo unspecified)", "units": "%", "max response": 4.45}
{"compound": "CCc1cc(C2=C(C(=O)O)N(c3ccccc3C(F)(F)F)S(=O)(=O)c3ccccc32)cc2c1OCO2", "units": "%", "max response": -24.9}
